Numbers sourced from PubChem BioAssay.

experiment: probe aCHRDL2 binding to arrayed compounds – biochemical, biotinylated probe, 635/667 nm fluorescence, primary screen (AID 1100); settings: small-molecule microarray, higher = more signal
Each entry below carries its recorded composite z-score.
Would you mind answering with just the numeric figure?

Known results for compounds:
Prompt: Need composite z-score of `COC(=O)[C@@]1(Cc2ccccc2)[C@H]2c3cc(C(=O)N(C)C)n(Cc4ccc(OC)c(OC)c4)c3C[C@H]2CN1C(=O)c1ccccc1` , thanks.
Completion: 0.94

Prompt: Need composite z-score of `COC(=O)[C@@]1(Cc2ccc(OC)cc2)[C@H]2c3cc(C(=O)N(C)C)n(Cc4ccc(C(F)(F)F)nc4)c3C[C@H]2CN1C(=O)c1ccccc1` , thanks.
Completion: 0.784

Prompt: Need composite z-score of `O[C@@H](Cc1ccccc1)[C@@H](/C=C/C1CC1)NCc1cccc(Cl)c1` , thanks.
Completion: 1.31

Prompt: Need composite z-score of O=C1OCCC/C=C\[C@H]2OC34C=CCN(c5ccc6ccccc6c5)C(=O)[C@H]3N(CCCCCO)C(=O)[C@@H]4C12 (some centres not stated) , thanks.
Completion: 0.364

Prompt: Need composite z-score of CS(=O)(=O)CCOC(=O)C1=CC(CCCO)=CC(C2CC2)N(Cc2cc3c(cc2Br)OCO3)C=C1C(=O)OCCS(C)(=O)=O (configuration not stated) , thanks.
Completion: 0.49

Further cases:
Prompt: Need composite z-score of `COC(=O)C(CC#Cc1ccc2c(c1)[C@]1(C(=O)N2)[C@H](c2ccccc2OCCO)N2[C@H](c3ccccc3)[C@H](c3ccccc3)OC(=O)[C@H]2[C@@H]1C(N)=O)C(=O)OC` , thanks.
Completion: 0.862

Prompt: Need composite z-score of `COc1ccc([Si](C)(C)[C@@H]2[C@@H](CCO)O[C@]3(C(=O)N(Cc4cccc(N5CCOC5=O)c4)c4ccccc43)[C@H]2C)cc1` , thanks.
Completion: 0.246
